- assay.target: T1, cynomolgus monkey CXCR6 (cynomolgus monkey, UniProt Q9BDS6 1-343)
- T1 construct: also called cyno-CXCR6; cyno monkey CXCR6
- T1 sequence: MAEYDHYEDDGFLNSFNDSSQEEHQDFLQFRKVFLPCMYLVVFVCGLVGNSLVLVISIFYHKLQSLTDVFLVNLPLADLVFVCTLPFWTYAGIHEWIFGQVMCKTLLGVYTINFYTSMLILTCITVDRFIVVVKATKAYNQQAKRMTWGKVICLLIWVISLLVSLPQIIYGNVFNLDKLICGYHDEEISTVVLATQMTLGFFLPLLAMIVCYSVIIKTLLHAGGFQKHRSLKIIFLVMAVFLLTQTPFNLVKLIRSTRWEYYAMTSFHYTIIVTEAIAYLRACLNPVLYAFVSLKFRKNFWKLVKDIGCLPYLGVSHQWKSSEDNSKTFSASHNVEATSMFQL
- assay.text: screening on cells overexpressing CXCR6, one single concentration, yes/no
property.name: binding result

# binder, property.name, obs.value
records = [
    ("Beacon2-F1 (antibody, V domains shown, Mouse-derived; tested at the screening stage) VH: EVQLVESGGDLVKPGGSLKLSCAASGFTFSSYGMSWVRQTPDKRLEWVATISSGGSYTYYPDSVKGRFPISRDNAKNTLYQQMSSLNSEDTAMYYCARLYGNYPYFAMDYWGQGTSVTVSS VL: DIVMTQSQKFMSTSVGDRVSITCKASQNVGTAVAWYQQKPGQSPKLLIFSASNRYTGVPDRFTGSGSGTDFTLTISNMQSEDLADYFCQQYSSYPYTFGGGTKLEIK", "binding result", "binds"),
    ("Beacon2-G5 (antibody, V domains shown, Mouse-derived) VH: EVQLVESGGDLVKPGGSLKLSCAASGFTFSSYGMSWVRQTPDKRLEWVATISSRGSYTYYPDSVKGRLTISRENAKNTLSLQMSSLKSEDTAMYYCARRVFPYWFFDVWGAGTTVTVSS VL: DIVMTQSHKFMSTSVGDRVSITCKASQDVSTAVAWYQQKSGQSPKLLIYSASYRYTGVPDRFTGSGSGTDFTFTISSVQAEDLAVYYCQQHYTTPYTFGGGTKLEIK", "binding result", "binds"),
    ("CNE-6E5-C1 (antibody, V domains shown, Mouse-derived; tested at the screening stage) VH: QVTLKESGPGILQSSQILSLTCSFSGFSLITSGMGVSWIRKTSGKGLEWLAHIYWDDEKRYNPSLKSRLTISKGTSRNQVFLRITSVDTTDTATYFCVRREDFGDGFDYWGQGTTLTVSP VL: DVLMTQAPLSLPVSLGDQASISCRSSQTIVHSNGVTYLEWYLQKPGQSPKLLIYKVSNRFSGVPDRFSGSGSGTYFTLKISRVEAEDLGVYYCFQGSHVPPTFGGGTKLEIK", "binding result", "binds"),
]

These measurements were taken from patent US20240239907A1.
